In what follows, each item is paired with its Minimum inhibitory concentration, Ec FADDI-EC001 for Enterobacter cloacae.
Positions of bridges follow the written chain, without caps; N, C: chain ends. Non-standard residues stand in square brackets, D forms with d. Residues, ends and D or L forms follow the SMILES beside them. *: point of attachment. Benzoyl(3-CF3) = O=C(c1cccc(C(F)(F)F)c1)*; X22 = CC(C)c1ccc(C(=O)*)cc1; Nonanoyl = CCCCCCCCC(=O)*; Octanoyl = CCCCCCCC(=O)*; Orn = NCCC[C@H](N)C(=O)O; Dab = NCC[C@H](N)C(=O)O; X43 = O=C(c1cccc(F)c1)*; Abu = CC[C@H](N)C(=O)O; Dap = NC[C@H](N)C(=O)O
# value in mg/L; strip the unit string

compound | value_observed
CC[C@@H]1NC(=O)[C@@H](CC(C)C)NC(=O)[C@H](CCN)NC(=O)[C@@H](NC(=O)[C@H](CN)NC(=O)[C@@H](NC(=O)[C@H](CCN)NC(=O)c2ccc(C(C)C)cc2)[C@@H](C)O)CCNC(=O)[C@H]([C@@H](C)O)NC(=O)[C@H](CCN)NC(=O)[C@H](CCN)NC1=O [Compound 99] (X22-[Dab]T[Dap][Dab][Dab][dL][Abu][Dab][Dab]T; lactam 4-C) | 0.25
CC[C@@H]1NC(=O)[C@@H](CC(C)C)NC(=O)[C@H](CCN)NC(=O)[C@@H](NC(=O)[C@H](CN)NC(=O)[C@@H](NC(=O)[C@H](CCN)NC(=O)c2cccc(F)c2)[C@@H](C)O)CCNC(=O)[C@H]([C@@H](C)O)NC(=O)[C@H](CCN)NC(=O)[C@H](CCN)NC1=O [Compound 86] (X43-[Dab]T[Dap][Dab][Dab][dL][Abu][Dab][Dab]T; lactam 4-C) | 1
CCCCCCCCC(=O)N[C@@H](CCN)C(=O)N[C@H](C(=O)N[C@@H](CCN)C(=O)N[C@H]1CCNC(=O)[C@H]([C@@H](C)O)NC(=O)[C@H](CCN)NC(=O)[C@H](CCN)NC(=O)[C@H]([C@@H](C)O)NC(=O)[C@@H](CC(C)C)NC(=O)[C@H](CCN)NC1=O)[C@@H](C)O [Compound 43] (Nonanoyl-[Dab]T[Dab][Dab][Dab][dL]T[Dab][Dab]T; lactam 4-C) | 0.25
CCCCCCCC(=O)N[C@@H](CCN)C(=O)N[C@H](C(=O)N[C@H](CO)C(=O)N[C@H]1CCNC(=O)[C@H]([C@@H](C)O)NC(=O)[C@H](CCN)NC(=O)[C@H](CCN)NC(=O)[C@H]([C@@H](C)O)NC(=O)[C@@H](Cc2ccccc2)NC(=O)[C@H](CCN)NC1=O)[C@@H](C)O [Compound 3] (Octanoyl-[Dab]T[dS][Dab][Dab][dF]T[Dab][Dab]T; lactam 4-C) | 0.5

State recorded Minimum inhibitory concentration, Ec FADDI-EC001 with Enterobacter cloacae, entry CCCCCCCC(=O)N[C@@H](CCN)C(=O)N[C@H](C(=O)N[C@@H](CN)C(=O)N[C@H]1CCNC(=O)[C@H]([C@@H](C)O)NC(=O)[C@H](CCN)NC(=O)[C@H](CCN)NC(=O)[C@H]([C@@H](C)O)NC(=O)[C@@H](CC(C)C)NC(=O)[C@H](CCCN)NC1=O)[C@@H](C)O [Compound 55] (Octanoyl-[Dab]T[Dap][Dab][Orn][dL]T[Dab][Dab]T; lactam 4-C) , no comment.
1

State recorded Minimum inhibitory concentration, Ec FADDI-EC001 with Enterobacter cloacae, entry CC(C)C[C@H]1NC(=O)[C@H](CCN)NC(=O)[C@@H](NC(=O)[C@@H](CO)NC(=O)[C@@H](NC(=O)[C@H](CCN)NC(=O)c2cccc(C(F)(F)F)c2)[C@@H](C)O)CCNC(=O)[C@H]([C@@H](C)O)NC(=O)[C@H](CCN)NC(=O)[C@H](CCN)NC(=O)[C@H]([C@@H](C)O)NC1=O [Compound 19] ({Benzoyl(3-CF3)}-[Dab]T[dS][Dab][Dab][dL]T[Dab][Dab]T; lactam 4-C) , no comment.
1
